# reported log10 of TGI; entries follow
# Tested on: OVCAR-3 ovarian
# run-description: NCI tumour cell line growth inhibition, 48 h
Heads up, the numbers here are log10 of TGI in µM units.

These solved cases illustrate the format of a correct answer.
CN1CC(S(=O)(=O)c2ccccc2)CC(S(=O)(=O)c2ccccc2)C1c1ccccc1 (centres undefined) | 1.44
COc1ccc(C(=O)c2cc(OC)c(OC)c(OC)c2)cc1/C=C/C(=O)c1ccc2c(c1)OCO2 | 0.86
Cc1[nH]c2ccccc2c1C1=CC(=O)C=CC1=O | 0.66
O=C1Cc2c(-c3ccccc3)cc(-c3ccc4ccccc4c3)nc2-c2ccccc2N1 | 1.44
COc1ccc(NC(=O)CC(=O)n2nc(-c3ccccc3)c(N=Nc3ccccc3C)c2-c2ccccc2)cc1 | 1.52

-- ask State the measured log10 of TGI (OVCAR-3 ovarian) of C/C=C1\C[C@@H]2C(OC)Nc3cc(O)c(OC)cc3C(=O)N2C1 (some centres undefined)
-- reply -1.47

-- ask State the measured log10 of TGI (OVCAR-3 ovarian) of C=CCCC(O)c1ccc(CCCCCCCCCCC)o1 (centres undefined)
-- reply 1.56

====

# System: SF-268 CNS
# run-description: NCI tumour cell line growth inhibition, 48 h
endpoint-name: TGI

O=C(O)C1CCCCC1C(=O)Nc1nc2ccccc2[nH]1 (configuration not stated) | > 100 µM
CNC(=O)c1c(NC(=O)c2ccc(C(C)C)cc2)sc2c1CCC(=O)C2 | 2.41 µM
Clc1ccc2c(Cl)nc(-c3ccccc3)nc2c1 | > 100 µM
O=C1c2cscc2C(=O)c2c(OCc3ccccc3)ccc(OCc3ccccc3)c21 | > 100 µM
Cc1nn(-c2ccccc2)c(C)c1/C=N/N1CCN(Cc2ccccc2)CC1 | > 100 µM

-- ask Consider the molecule C=CCOCn1ccc(NC(=O)c2ccccc2)nc1=O . State its measured TGI.
-- reply > 100 µM

-- ask Consider the molecule Cc1cccc2c1ccc1c3occ(C)c3c(=O)oc21 . State its measured TGI.
-- reply > 100 µM

====

# Test system: HT29 colon
# run-description: NCI tumour cell line growth inhibition, 48 h
endpoint-name: TGI

These solved cases illustrate the format of a correct answer.
C/C=C/C=C\C(=O)C1c2cccc(O)c2C(=O)c2c(O)cc(C)cc21 (stereo not given) | 4.21 µM
Cc1ccc(S(=O)(=O)c2ccsc2NC(=O)c2ccccc2)cc1 | > 100 µM
CC(=O)Nc1ccc(S(=O)(=O)c2ccc(NC(C)=O)cc2)cc1 | > 100 µM
CNC(=O)c1c(NC(=O)c2ccc(C(C)C)cc2)sc2c1CCC(=O)C2 | 1.6 µM
COc1ccc(NC(=O)CC(=O)n2nc(-c3ccccc3)c(N=Nc3ccccc3C)c2-c2ccccc2)cc1 | > 100 µM

-- ask Consider the molecule C[CH2][Sn]([Cl])([CH2]C)[CH2]C . State its measured TGI.
-- reply 2.62 µM

-- ask Consider the molecule Cc1ccc(C(=O)c2[nH]c(Nc3ccc(Cl)cc3)c(C(=S)Nc3ccccc3)c2N)cc1 . State its measured TGI.
-- reply 16.8 µM

-- ask Consider the molecule NC(=O)OCC(COc1ccc(Cl)cc1)OC(=O)c1cc([N+](=O)[O-])cc([N+](=O)[O-])c1 (stereo not given) . State its measured TGI.
-- reply > 100 µM

-- ask Consider the molecule CC1=C2c3ccccc3N(S(=O)(=O)c3ccccc3)[C@H]2[C@H](C(=O)N2C3CC4CC[C@@]3(CS2(=O)=O)C4(C)C)CC1 (stereo not given in full) . State its measured TGI.
-- reply > 100 µM

-- ask Consider the molecule O=C(O)C1CCCCC1C(=O)Nc1nc2ccccc2[nH]1 (stereo not given) . State its measured TGI.
-- reply > 100 µM

-- ask Consider the molecule NN/C(=N\S(=O)(=O)c1cccc2nsnc12)Nc1ccc(Cl)cc1 . State its measured TGI.
-- reply > 100 µM

-- ask Consider the molecule CN/N=C(/CC(=O)c1sc(-n2nc(-c3ccccc3)cc2-c2ccccc2)nc1C)C(=O)Nc1ccc(Cl)c(Cl)c1 . State its measured TGI.
-- reply > 100 µM

-- ask Consider the molecule O=C1c2cscc2C(=O)c2c(OCc3ccccc3)ccc(OCc3ccccc3)c21 . State its measured TGI.
-- reply > 100 µM

-- ask Consider the molecule CCNC(=O)c1ccc2c(c1)nc(-c1ccc(Cl)cc1)n2-c1cc(C(C)(C)C)[nH]n1 . State its measured TGI.
-- reply 9.71 µM

-- ask Consider the molecule O=c1[nH]c(=O)n(C2OC(CO)C(O)C2O)cc1OCc1ccccc1 (stereo not given) . State its measured TGI.
-- reply > 100 µM

-- ask Consider the molecule COc1cc(/C=N/Nc2ncnc3c2cnn3Cc2ccccc2)ccc1O . State its measured TGI.
-- reply > 25 µM

-- ask Consider the molecule C=CCCC(O)c1ccc(CCCCCCCCCCC)o1 (stereo not given) . State its measured TGI.
-- reply 33.5 µM

-- ask Consider the molecule COc1cc2c(cc1O)-c1c(OC)c(O)cc3c1C(C2)N(C)CC3 (stereo not given) . State its measured TGI.
-- reply > 100 µM

-- ask Consider the molecule C(=C\c1nc2ccccc2s1)/c1ccc(N2CCOCC2)s1 . State its measured TGI.
-- reply > 100 µM

-- ask Consider the molecule O=C(O)CP(=O)(c1ccccc1)c1ccccc1.O=C(O)CP(=O)(c1ccccc1)c1ccccc1.[Cd] . State its measured TGI.
-- reply 37.3 µM

====

# System: UO-31 renal
# run-description: NCI tumour cell line growth inhibition, 48 h
# reported TGI; entries follow

COCN1C(=O)[C@@H]2CCCN2C(=O)c2cc(Cl)ccc21 | > 100 µM
Cc1ccc(S(=O)(=O)c2ccsc2NC(=O)c2ccccc2)cc1 | > 100 µM
COc1ccc2c(c1)c(-c1nc(-c3cn(C)c4ncccc34)cs1)cn2CCCCN1CCOCC1 | 2.56 µM
Cc1ccc(C(O)/C(=N/N)c2nc3ccc([N+](=O)[O-])cc3[nH]c2=O)cc1 (centres undefined) | > 100 µM

-- ask State the measured TGI (UO-31 renal) of CC(C)N(C(=O)c1ccc(NCc2cc(O)ccc2O)cc1)C(C)C
-- reply 21.3 µM

-- ask State the measured TGI (UO-31 renal) of CCCC(=O)[O-].CCCC(=O)[O-].N.N.N.N.[Co+3].[O-][Cl+3]([O-])([O-])[O-]
-- reply > 100 µM

-- ask State the measured TGI (UO-31 renal) of Cc1ccc(C(=O)c2[nH]c(Nc3ccc(Cl)cc3)c(C(=S)Nc3ccccc3)c2N)cc1
-- reply 23 µM

-- ask State the measured TGI (UO-31 renal) of Cc1nc2ccc(S(=O)(=O)Nc3ccccc3Cl)cc2c(=O)n1NC(=O)CNc1ccccc1Cl
-- reply > 100 µM

-- ask State the measured TGI (UO-31 renal) of CCOC(=O)/C(=C/c1ccc(Cl)cc1)N(CC)CC
-- reply > 100 µM

-- ask State the measured TGI (UO-31 renal) of Nc1ccc(-c2nc3ccc(Cc4ccc5nc(-c6ccc(N)cc6)oc5c4)cc3o2)cc1
-- reply > 100 µM

-- ask State the measured TGI (UO-31 renal) of CCCCC/C=C\C/C=C/CCCCCCCCNC(=O)Nc1ccc([N+](=O)[O-])cc1
-- reply > 100 µM

-- ask State the measured TGI (UO-31 renal) of CCN(CC)CCNc1ccc2ncn3c4c(OC)ccc(=O)c4c(O)c1c23
-- reply > 100 µM

====

# reported TGI; entries follow
# Tested on: NCI-H23 lung
# run-description: NCI tumour cell line growth inhibition, 48 h
Where a SMILES comes first, the peptide text is derived from it. The star is where a group is joined. Boc = CC(C)(C)OC(=O)*; OBn = c1ccc(CO*)cc1

These solved cases illustrate the format of a correct answer.
Cc1n(-c2ccccc2)c2c([n+]1Cc1ccc([N+](=O)[O-])cc1)C(=O)c1ccccc1C2=O | 5.22 µM
O=C1C(Cl)C(c2cccc(Br)c2)N1c1c(O)c(Cl)cc(Br)c1Cl (stereo not drawn) | 37.9 µM
O=[N+]([O-])c1cc([N+](=O)[O-])c(C(Cl)C(Cl)c2ccccc2)cc1C(Cl)C(Cl)c1ccccc1 (stereo not drawn) | 3.72 µM
NC(=O)OCC(COc1ccc(Cl)cc1)OC(=O)c1cc([N+](=O)[O-])cc([N+](=O)[O-])c1 (stereo not drawn) | > 100 µM
O=[N+]([O-])c1ccc(NN=C2c3ccccc3Cc3ccccc32)c([N+](=O)[O-])c1 | > 100 µM

-- ask Consider the compound C=CCN(c1cc(OCc2ccccc2)c2c(c1)c(C)cn2S(=O)(=O)c1ccccc1)S(C)(=O)=O . State its measured TGI.
-- reply > 100 µM

-- ask Consider the compound Cc1cc2c(=O)c3ccccc3oc2c(C#N)c1C . State its measured TGI.
-- reply > 100 µM

-- ask Consider the compound CC(C)C(NC(=O)CNC(=O)C1CCCN1C(=O)C(NC(=O)OC(C)(C)C)C(C)C)C(=O)NCC(=O)OCc1ccccc1 (stereo not drawn) (Boc-VPGVG-OBn; configuration not given here) . State its measured TGI.
-- reply > 100 µM
